All values here come from the supplement of paper PMC10567573.

B1: PDLIM4 (parent)
chain: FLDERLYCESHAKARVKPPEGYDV

- Variants of: B1
- experiment description: protein stability index of a GFP-peptide fusion (GPS, HEK-293T) (PSI 1-6); higher = more stable;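 note: lentivirally expressed fusions sorted by FACS into six bins by GFP to DsRed ratio, PSI derived from sequencing read proportions per bin multiplied by bin number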
- test conditions: c terminus: a fixed tail appended
Overview of recorded protein stability index for various variants

Below: 5 variants and their reported protein stability index.
| seq | protein stability index |
| --- | --- |
| FLDERLYCESHAKARVKPPEGYAV [D23A] | 1.48 |
| FLDERLYCESHAKARVKPPEGYDG [V24G] | 1.51 |
| FLDERLYCESHSKARVKPPEGYDV [A12S] | 1.42 |
| FYDERLYCESHAKARVKPPEGYDV [L2Y] | 3.53 |
| FLDERLYCESHAKAIVKPPEGYDV [R15I] | 2.03 |

QUERY: Data request, read-out protein stability index, for FLDERPYCESHAKARVKPPEGYDV [L6P]
RESULT: 1.7

QUERY: I would be grateful if you could share the reported protein stability index for FLDERLECESHAKARVKPPEGYDV [Y7E] .
RESULT: 4.06

QUERY: Which protein stability index value belongs to FLDERLYCTSHAKARVKPPEGYDV [E9T] ?
RESULT: 1.31

QUERY: Request the reported protein stability index associated with FLDERLYCESHAKARIKPPEGYDV [V16I]
RESULT: 1.62

QUERY: Return reported protein stability index; argument: FLDERLYCENHAKARVKPPEGYDV [S10N]
RESULT: 1.26

QUERY: Given the entry FLDERLYCGSHAKARVKPPEGYDV [E9G] , report its measured protein stability index.
RESULT: 1.74
